Tested on: Vero
Assay: Cytotoxicity against african green monkey Vero cells
Format: cell-based
Conditions: chlorocebus sabaeus
hey, just use 1 if measured CC50 is less than 40 µM, otherwise 0

INSERT INTO measurements (cpd_smiles, class_name) VALUES
  ('CC(C)(C)C(=O)OCOP(=O)(C/C=C/Cn1cc(C(=O)O)nn1)OCOC(=O)C(C)(C)C', 0),
  ('CC(C)(C)C(=O)OCOP(=O)(C/C=C/Cn1cc(C(N)=O)nn1)OCOC(=O)C(C)(C)C', 0),
  ('CC(C)(C)C(=O)OCOP(=O)(C/C=C/Cn1cc(-c2ccccc2)nn1)OCOC(=O)C(C)(C)C', 1),
  ('COC(=O)c1nccn(C/C=C/CP(=O)(OCOC(=O)C(C)(C)C)OCOC(=O)C(C)(C)C)c1=O', 0),
  ('CC(C)(C)C(=O)OCOP(=O)(C/C=C/Cn1cnc(C(N)=O)n1)OCOC(=O)C(C)(C)C', 0),
  ('CC(C)(C)C(=O)OCOP(=O)(C/C=C/Cn1ccc(N)nc1=O)OCOC(=O)C(C)(C)C', 0),
  ('COc1cc(OC)cc(-c2cn(C/C=C/CP(=O)(OCOC(=O)C(C)(C)C)OCOC(=O)C(C)(C)C)nn2)c1', 0),
  ('CC(C)(C)C(=O)OCOP(=O)(C/C=C/Cn1ccnn1)OCOC(=O)C(C)(C)C', 0),
  ('CCCCCCCCc1cn(C/C=C/CP(=O)(OCOC(=O)C(C)(C)C)OCOC(=O)C(C)(C)C)nn1', 1),
  ('CC(C)(C)C(=O)OCOP(=O)(C/C=C/Cn1cc(CO)nn1)OCOC(=O)C(C)(C)C', 0),
  ('CC(C)(C)C(=O)OCOP(=O)(C/C=C/Cn1ccnc(C(N)=O)c1=O)OCOC(=O)C(C)(C)C', 0);

###

System: HEL
Test: Cytotoxicity against human HEL cells after 3 days by Coulter counting method
Assay type: cell-based
Conditions: 72 h
Listed molecules paired with reported CC50
Test Readout: CC50

INSERT INTO results (cpd_smiles, target_of_assay, test_readout, result) VALUES
  ('CC(C)(C)C(=O)OCOP(=O)(C/C=C/Cn1cc(CO)nn1)OCOC(=O)C(C)(C)C', 'HEL', 'CC50', '100 µM'),
  ('Nc1nc(O)c2ncn(COC(CO)CO)c2n1', 'HEL', 'CC50', '> 350 µM'),
  ('Nc1ccn(C[C@@H](CO)OCP(=O)(O)O)c(=O)n1', 'HEL', 'CC50', '> 350 µM');

###

Each entry below lists one item and its recorded CC50 value.
System: PBMC
Test: Cytotoxicity against human PBMC cells
Format: cell-based
Test Readout: CC50 (µM)

INSERT INTO assay_data (cpd_smiles, test_readout, readout_relation, recorded_number) VALUES
  ('CC(C)(C)C(=O)OCOP(=O)(C/C=C/Cn1cc(C(=O)O)nn1)OCOC(=O)C(C)(C)C', 'CC50', '>', 100),
  ('CCCCCCCCc1cn(C/C=C/CP(=O)(OCOC(=O)C(C)(C)C)OCOC(=O)C(C)(C)C)nn1', 'CC50', '=', 19.8),
  ('CC(C)(C)C(=O)OCOP(=O)(C/C=C/Cn1cc(-c2ccc(OC(F)(F)F)cc2)nn1)OCOC(=O)C(C)(C)C', 'CC50', '=', 19.6),
  ('CC(C)(C)C(=O)OCOP(=O)(C/C=C/Cn1ccnc(C(N)=O)c1=O)OCOC(=O)C(C)(C)C', 'CC50', '>', 100);
